# SYSTEM NAME: MAO-A (Rattus norvegicus, UniProt P21396)
# Construct: suspension of 1 part by volume of the forebrains of male Wistar rats; from tissue; host or cells: forebrain of male Wistar rats, suspension in potassium phosphate buffer
# Sequence (P21396 1-526): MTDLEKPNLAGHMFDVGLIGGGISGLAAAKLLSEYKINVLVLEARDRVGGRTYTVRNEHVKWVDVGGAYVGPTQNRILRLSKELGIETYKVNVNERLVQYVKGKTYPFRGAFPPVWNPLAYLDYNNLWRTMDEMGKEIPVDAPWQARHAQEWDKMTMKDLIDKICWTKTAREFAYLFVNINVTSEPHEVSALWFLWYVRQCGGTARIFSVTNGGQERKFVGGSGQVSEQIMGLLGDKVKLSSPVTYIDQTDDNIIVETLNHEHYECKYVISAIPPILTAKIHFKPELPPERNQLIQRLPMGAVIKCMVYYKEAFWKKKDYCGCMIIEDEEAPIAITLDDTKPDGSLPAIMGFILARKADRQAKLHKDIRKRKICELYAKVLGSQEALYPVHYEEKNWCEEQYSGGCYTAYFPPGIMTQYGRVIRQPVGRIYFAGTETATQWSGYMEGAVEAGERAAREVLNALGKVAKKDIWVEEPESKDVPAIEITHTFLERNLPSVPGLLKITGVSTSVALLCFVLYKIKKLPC
# ASSAY OVERVIEW: MAO-A inhibition activity with rat forebrain (14C-5-HT substrate)
# Format: biochemical, rat (male Wistar)
# EXPERIMENTAL CONDITIONS: 10^-7 M, read-out: Inhibiting activity MAO-A (% at 10^-7 M)
Classify by measured inhibition at 0.1 µM: MET if it is equal to or exceeds 60%, NOT MET if it is smaller.

[
  {
    "COMPOUND": "COCC1CN(c2ccc3nc(CCCCC#N)sc3c2)C(=O)O1 (stereo not drawn)",
    "ASSIGNED CATEGORY": "NOT MET"
  },
  {
    "COMPOUND": "COCC1CN(c2ccc3nc(COC(=O)c4ccccc4)sc3c2)C(=O)O1 (stereo not drawn)",
    "ASSIGNED CATEGORY": "MET"
  },
  {
    "COMPOUND": "COC[C@@H]1CN(c2ccc3nc(CCCCC#N)sc3c2)C(=O)O1",
    "ASSIGNED CATEGORY": "MET"
  },
  {
    "COMPOUND": "COCC1CN(c2ccc3nc(CO)sc3c2)C(=O)O1 (stereo not drawn)",
    "ASSIGNED CATEGORY": "MET"
  },
  {
    "COMPOUND": "COCC1CN(c2ccc3nc(C(O)CCCO)sc3c2)C(=O)O1 (stereo not drawn)",
    "ASSIGNED CATEGORY": "NOT MET"
  },
  {
    "COMPOUND": "COCC1CN(c2ccc3nc(C(N)CCC#N)sc3c2)C(=O)O1 (stereo not drawn)",
    "ASSIGNED CATEGORY": "NOT MET"
  },
  {
    "COMPOUND": "COC[C@H]1CN(c2ccc3nc(C(C)(C)CCC#N)sc3c2)C(=O)O1",
    "ASSIGNED CATEGORY": "MET"
  },
  {
    "COMPOUND": "COCC1CN(c2ccc3nc(C(O)CC=NO)sc3c2)C(=O)O1 (stereo not drawn)",
    "ASSIGNED CATEGORY": "MET"
  },
  {
    "COMPOUND": "COCC1CN(c2ccc3nc(NCCC#N)sc3c2)C(=O)O1 (stereo not drawn)",
    "ASSIGNED CATEGORY": "NOT MET"
  },
  {
    "COMPOUND": "COCC1CN(c2ccc3sc(NC(=O)CC#N)nc3c2)C(=O)O1 (stereo not drawn)",
    "ASSIGNED CATEGORY": "NOT MET"
  },
  {
    "COMPOUND": "COCC1CN(c2ccc3nc(C(CCC#N)N4CCCC4)sc3c2)C(=O)O1 (stereo not drawn)",
    "ASSIGNED CATEGORY": "NOT MET"
  },
  {
    "COMPOUND": "COCC1CN(c2ccc3sc(C(O)CCC#N)nc3c2)C(=O)O1 (stereo not drawn)",
    "ASSIGNED CATEGORY": "NOT MET"
  },
  {
    "COMPOUND": "COCC1CN(c2ccc3nc(C(CCC#N)=NO)sc3c2)C(=O)O1 (stereo not drawn)",
    "ASSIGNED CATEGORY": "NOT MET"
  },
  {
    "COMPOUND": "COC[C@H]1CN(c2ccc3nc(C4CCC(O)O4)sc3c2)C(=O)O1 (stereo partly drawn)",
    "ASSIGNED CATEGORY": "NOT MET"
  },
  {
    "COMPOUND": "COCC1CN(c2ccc3sc(C)nc3c2)C(=O)O1 (stereo not drawn)",
    "ASSIGNED CATEGORY": "NOT MET"
  },
  {
    "COMPOUND": "COC[C@@H]1CN(c2ccc3nc(CCCC#N)sc3c2)C(=O)O1",
    "ASSIGNED CATEGORY": "NOT MET"
  },
  {
    "COMPOUND": "COCC1CN(c2ccc3sc(CCCC#N)nc3c2)C(=O)O1 (stereo not drawn)",
    "ASSIGNED CATEGORY": "NOT MET"
  },
  {
    "COMPOUND": "COCC1CN(c2ccc3nc(C(O)CCC#N)sc3c2)C(=O)O1 (stereo not drawn)",
    "ASSIGNED CATEGORY": "NOT MET"
  },
  {
    "COMPOUND": "COCC1CN(c2ccc3nc(C(=O)CCC#N)sc3c2)C(=O)O1 (stereo not drawn)",
    "ASSIGNED CATEGORY": "NOT MET"
  },
  {
    "COMPOUND": "N#CCCNc1nc2ccc(N3CC(CO)OC3=O)cc2s1 (stereo not drawn)",
    "ASSIGNED CATEGORY": "NOT MET"
  },
  {
    "COMPOUND": "COCC1CN(c2ccc3nc(/C=C/CCC#N)sc3c2)C(=O)O1 (stereo not drawn)",
    "ASSIGNED CATEGORY": "NOT MET"
  },
  {
    "COMPOUND": "N#CC1CCN(c2nc3ccc(N4CC(CO)OC4=O)cc3s2)CC1 (stereo not drawn)",
    "ASSIGNED CATEGORY": "MET"
  },
  {
    "COMPOUND": "COC[C@H]1CN(c2ccc3nc(CCCC#N)sc3c2)C(=O)O1",
    "ASSIGNED CATEGORY": "MET"
  },
  {
    "COMPOUND": "COC[C@H]1CN(c2ccc3nc([C@@H](O)CCC#N)sc3c2)C(=O)O1",
    "ASSIGNED CATEGORY": "MET"
  },
  {
    "COMPOUND": "CC(C)(CCC#N)c1nc2ccc(N3C[C@H](CO)OC3=O)cc2s1",
    "ASSIGNED CATEGORY": "MET"
  },
  {
    "COMPOUND": "COCC1CN(c2ccc3nc(C(CCC#N)=NOC)sc3c2)C(=O)O1 (stereo not drawn)",
    "ASSIGNED CATEGORY": "NOT MET"
  }
]

* * *

Here the recorded inhibition at 1 µM is given for each entry.
# SYSTEM NAME: MAO-B (Rattus norvegicus, UniProt P19643)
# Construct: suspension of 1 part by volume of the forebrains of male Wistar rats; from tissue; host or cells: forebrain of male Wistar rats, suspension in potassium phosphate buffer
# Sequence (P19643 whole entry): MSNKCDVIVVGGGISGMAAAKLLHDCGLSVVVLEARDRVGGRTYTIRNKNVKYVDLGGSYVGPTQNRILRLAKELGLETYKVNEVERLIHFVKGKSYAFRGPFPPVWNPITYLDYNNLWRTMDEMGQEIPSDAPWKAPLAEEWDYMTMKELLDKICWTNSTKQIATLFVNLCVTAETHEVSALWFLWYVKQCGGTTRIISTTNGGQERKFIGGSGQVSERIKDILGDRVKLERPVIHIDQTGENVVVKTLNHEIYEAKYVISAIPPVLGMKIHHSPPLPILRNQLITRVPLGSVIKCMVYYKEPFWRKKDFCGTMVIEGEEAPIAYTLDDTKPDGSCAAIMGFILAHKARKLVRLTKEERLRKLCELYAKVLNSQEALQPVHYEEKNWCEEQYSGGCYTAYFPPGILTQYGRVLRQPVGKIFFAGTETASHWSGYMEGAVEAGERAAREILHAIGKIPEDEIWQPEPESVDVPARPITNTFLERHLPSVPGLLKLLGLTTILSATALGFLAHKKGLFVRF
# ASSAY OVERVIEW: MAO-B inhibition activity with rat forebrain (14C-PEA substrate)
# Format: biochemical, rat (male Wistar)
# EXPERIMENTAL CONDITIONS: 10^-6 M, read-out: Inhibiting activity MAO-B (% at 10^-6 M)

[
  {
    "MOLECULE": "COCC1CN(c2ccc3nc(C(CCC#N)N4CCCC4)sc3c2)C(=O)O1 (stereo not shown)",
    "QUANTITY UNIT": "%",
    "inhibition at 1 µM": 6
  },
  {
    "MOLECULE": "CC(C)(CCC#N)c1nc2ccc(N3C[C@H](CO)OC3=O)cc2s1",
    "QUANTITY UNIT": "%",
    "inhibition at 1 µM": 7
  },
  {
    "MOLECULE": "COCC1CN(c2ccc3nc(COC(=O)c4ccccc4)sc3c2)C(=O)O1 (stereo not shown)",
    "QUANTITY UNIT": "%",
    "inhibition at 1 µM": 15
  },
  {
    "MOLECULE": "COCC1CN(c2ccc3nc(C(O)CCCO)sc3c2)C(=O)O1 (stereo not shown)",
    "QUANTITY UNIT": "%",
    "inhibition at 1 µM": 15
  },
  {
    "MOLECULE": "N#CC1CCN(c2nc3ccc(N4CC(CO)OC4=O)cc3s2)CC1 (stereo not shown)",
    "QUANTITY UNIT": "%",
    "inhibition at 1 µM": 5
  },
  {
    "MOLECULE": "COCC1CN(c2ccc3sc(C)nc3c2)C(=O)O1 (stereo not shown)",
    "QUANTITY UNIT": "%",
    "inhibition at 1 µM": 4
  },
  {
    "MOLECULE": "COCC1CN(c2ccc3nc(CNCC#N)sc3c2)C(=O)O1 (stereo not shown)",
    "QUANTITY UNIT": "%",
    "inhibition at 1 µM": 13
  }
]

These measurements were taken from patent US5475014A.
